# Read-out: E-selectin (Homo sapiens)
# Procedure details: BSK_LPS_Eselectin: BioMAP Diversity Plus: LPS Assay for Eselectin Biomarker Activity (AID 2283077)
# Condition details: primary human HUVEC with PBMC; actives raise or lower the signal
Calls of active or inactive are those of the source. The calls were made as follows: active = hit-call score of the fitted dose curve at least 0.9, where 1 is the maximum; inactive = score below 0.9.
Possible outcomes: T = active, F = inactive

{"Compound": "CCOC(=O)c1ccc(O)cc1", "Label class": "F"}
{"Compound": "C=CCOC(Cn1ccnc1)c1ccc(Cl)cc1Cl (stereo not drawn)", "Label class": "F"}
{"Compound": "CC(=O)[C@H]1CC[C@H]2[C@@H]3CCC4=CC(=O)CC[C@]4(C)[C@H]3CC[C@]12C", "Label class": "T"}
{"Compound": "CC(=O)S[C@@H]1CC2=CC(=O)CC[C@]2(C)[C@H]2CC[C@@]3(C)[C@@H](CC[C@@]34CCC(=O)O4)[C@H]12", "Label class": "T"}
{"Compound": "CCCCCOC(=O)COc1cc(N2C(=O)C3=C(CCCC3)C2=O)c(F)cc1Cl", "Label class": "F"}
{"Compound": "CCCCC(CC)COC(=O)c1ccccc1C(=O)O (stereo not drawn)", "Label class": "F"}
{"Compound": "O=C(c1ccccc1)C1CCCCC1", "Label class": "F"}
{"Compound": "CC1(C)C(C=C(Cl)Cl)C1C(=O)OCc1cccc(Oc2ccccc2)c1 (stereo not drawn)", "Label class": "F"}
{"Compound": "CC(C)(c1ccc(O)cc1)c1ccc(O)cc1", "Label class": "F"}
{"Compound": "CCN(Cc1c(F)cccc1Cl)c1c([N+](=O)[O-])cc(C(F)(F)F)cc1[N+](=O)[O-]", "Label class": "F"}
{"Compound": "N[C@@H](Cc1cc(I)c(Oc2ccc(O)c(I)c2)c(I)c1)C(=O)O", "Label class": "T"}
{"Compound": "CC(C)(C)[C@@H](O)[C@@H](Cc1ccc(Cl)cc1)n1cncn1", "Label class": "F"}
{"Compound": "CSC(=O)c1cccc2nnsc12", "Label class": "F"}
{"Compound": "CCCCOCCOCCOCc1cc2c(cc1CCC)OCO2", "Label class": "F"}
{"Compound": "c1ccc2[nH]c(-c3cscn3)nc2c1", "Label class": "F"}
{"Compound": "CCOC(=O)COc1cc(-n2ncc(C(F)(F)F)c(C)c2=O)c(F)cc1Cl", "Label class": "F"}
{"Compound": "S=C(S)NCCNC(=S)S.[Mn+2].[S-]C([S-])=NCCN=C([S-])[S-].[Zn+2]", "Label class": "F"}
{"Compound": "C[C@]12CC[C@@H]3c4ccc(O)cc4C[C@@H](CCCCCCCCCS(=O)CCCC(F)(F)C(F)(F)F)[C@H]3[C@@H]1CC[C@@H]2O (stereo partly drawn)", "Label class": "F"}
{"Compound": "COC(=O)c1c(Cl)nn(C)c1S(=O)(=O)NC(=O)Nc1nc(OC)cc(OC)n1", "Label class": "F"}
{"Compound": "COC(=O)c1ccccc1C(=O)O", "Label class": "F"}
{"Compound": "CCCN(CCC)C(=O)SCC", "Label class": "F"}
{"Compound": "C#CCOC(=O)[C@@H](C)Oc1ccc(Oc2ncc(Cl)cc2F)cc1", "Label class": "F"}
{"Compound": "OB(O)O", "Label class": "F"}

These entries and their values trace back to PubChem BioAssay (EPA / NIEHS).
